# SYSTEM_NAME: biotinylated His-Avi-TEAD (194-411) (UniProt P28347)
# PROTOCOL_DETAILS: SSM screen, enrichment after two rounds of sorting
Could you mark each record t if its enrichment score falls strictly under -1, and f if it equals or exceeds it?

These recorded examples may help you get a feel for the data.
BINDER	CLASS_NAME
GSPDEYIERAKECCKKGQIQCCLRYFEESGDPNVMLICLFCP (designed binder) [D16Q variant of SEQ ID NO: 1]	t
GSPDEYIERWKECCKKGDIQCCLRYFEESGDPNVMLICLFCP (designed binder) [A08W variant of SEQ ID NO: 1]	t
GSPDEYIERAKECCKKGDIGCCLRYFEESGDPNVMLICLFCP (designed binder) [Q18G variant of SEQ ID NO: 1]	t
GSPDEYIERAKECCFKGDIQCCLRYFEESGDPNVMLICLFCP (designed binder) [K13F variant of SEQ ID NO: 1]	t
GSPDEQIERAKECCKKGDIQCCLRYFEESGDPNVMLICLFCP (designed binder) [Y04Q variant of SEQ ID NO: 1]	f

query: Does the reported enrichment score of the following binder sit strictly below -1? GSPDEYIERAKECCKAGDIQCCLRYFEESGDPNVMLICLFCP (designed binder) [K14A variant of SEQ ID NO: 1]
result: f
